procedureDetails: Solubility in citrate at pH 6.5
Type: physicochemical
measuredParameter: solubility (µg/mL)
Give bare numbers, in µg/mL.

Form: compound = CC(=O)N1N=C(c2cc(F)ccc2F)C[C@H]1c1cccc(O)c1 ; solubility = 29
